- target: tumor necrosis factor alpha (TNFα) (human, UniProt P01375 77-233)
- Sequence (P01375 77-233 limits assumed): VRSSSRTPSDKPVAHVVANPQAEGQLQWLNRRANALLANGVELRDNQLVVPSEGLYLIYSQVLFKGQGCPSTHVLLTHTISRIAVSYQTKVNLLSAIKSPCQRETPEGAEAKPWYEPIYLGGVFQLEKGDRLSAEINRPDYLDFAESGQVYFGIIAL
- experiment: affinity by IC50 ELISA (so named in paragraph 380)
assay_readout: Affinity (nM)
The reply should contain only the number, in nM.

Tell me measured Affinity for MAb 1999 (antibody, V domains shown, IgG1/kappa, CHO; also called H1824/L459) VH: EVQLVESGGGLIQPGGSLRLSCAVSGLNVSRDYMSWVRQAPGKGLEWISVIYRGGITMYADSVKGRFTISRDTSKNTVFLQMSRLKVADTAVYYCARNYYGSTLDYWGQGTLVTVSS VL: EIVLTQSPVTLSVPPGERASLSCRASQNIYTAVAWYQQKPGQAPRLLIYNASTRATGIPARFSGGGSGTDYTLTISSLESEDFAVYHCQQWHSWPLTFGGGTKLEIK please.
0.04

Provide Affinity value for the following binder: MAb 2019 (antibody, V domains shown, IgG1/kappa, CHO; also called H1844/L459) VH: EVQLVESGGGLIQPGGSLRLSCAVSGLNVSRDYMSWVRQAPGKGLEWISVIYRGGVTMYADSVKGRFTISRDTSKNTVFLQMSRLKVADTAVYYCARNYYGSTLDYWGQGTLVTVSS VL: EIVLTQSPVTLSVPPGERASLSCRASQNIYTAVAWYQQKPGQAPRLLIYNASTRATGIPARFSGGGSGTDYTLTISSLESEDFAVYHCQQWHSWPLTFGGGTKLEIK
0.04

Identify measured Affinity associated with MAb 1988 (antibody, V domains shown, IgG1/kappa, CHO; also called H1813/L459) VH: EVQLVESGGGLIQPGGSLRLSCAVSGLNVSRDYMSWVRQAPGKGLEWISVIYRIGATMYADSVKGRFTISRDTSKNTVFLQMSRLKVADTAVYYCARNYYGSTLDYWGQGTLVTVSS VL: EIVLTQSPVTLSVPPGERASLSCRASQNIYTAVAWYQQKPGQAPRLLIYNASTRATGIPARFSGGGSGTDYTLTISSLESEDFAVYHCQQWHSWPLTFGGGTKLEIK
0.04

Tell me Affinity reported for MAb 1989 (antibody, V domains shown, IgG1/kappa, CHO; also called H1814/L459) VH: EVQLVESGGGLIQPGGSLRLSCAVSGLNVSRDYMSWVRQAPGKGLEWISVIYRVGATMYADSVKGRFTISRDTSKNTVFLQMSRLKVADTAVYYCARNYYGSTLDYWGQGTLVTVSS VL: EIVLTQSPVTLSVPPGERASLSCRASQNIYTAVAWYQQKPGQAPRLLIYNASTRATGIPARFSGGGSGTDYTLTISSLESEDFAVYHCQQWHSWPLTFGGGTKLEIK
0.05

State its Affinity: MAb 1896 (antibody, V domains shown, IgG1/kappa, CHO; also called H1685/L459) VH: EVQLVESGGGLIQPGGSLRLSCAVSGLNVSRDYMSWVRQAPGKGLEWISVIYRGGATMYADSVKGRFTISRDTSKNTVFLQMSRLKVADTAVYYCARNYYGSTLDYWGQGTLVTVSS VL: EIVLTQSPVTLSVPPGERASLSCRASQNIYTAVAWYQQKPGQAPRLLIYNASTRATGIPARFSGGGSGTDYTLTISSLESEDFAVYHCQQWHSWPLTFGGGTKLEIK
0.08

Others:
Annotate the binder MAb 2006 (antibody, V domains shown, IgG1/kappa, CHO; also called H1831/L459) VH: EVQLVESGGGLIQPGGSLRLSCAVSGLNVSRDYMSWVRQAPGKGLEWISVIYRGGATHYADSVKGRFTISRDTSKNTVFLQMSRLKVADTAVYYCARNYYGSTLDYWGQGTLVTVSS VL: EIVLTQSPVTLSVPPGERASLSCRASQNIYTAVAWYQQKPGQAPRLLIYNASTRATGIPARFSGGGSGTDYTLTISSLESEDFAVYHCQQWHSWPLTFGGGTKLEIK with its measured Affinity.
0.04

This collection of values is drawn from patent US20080267974A1.
